STUDY_SYSTEM: human V1a receptor (Homo sapiens (Human))
Sequence (P37288 whole entry): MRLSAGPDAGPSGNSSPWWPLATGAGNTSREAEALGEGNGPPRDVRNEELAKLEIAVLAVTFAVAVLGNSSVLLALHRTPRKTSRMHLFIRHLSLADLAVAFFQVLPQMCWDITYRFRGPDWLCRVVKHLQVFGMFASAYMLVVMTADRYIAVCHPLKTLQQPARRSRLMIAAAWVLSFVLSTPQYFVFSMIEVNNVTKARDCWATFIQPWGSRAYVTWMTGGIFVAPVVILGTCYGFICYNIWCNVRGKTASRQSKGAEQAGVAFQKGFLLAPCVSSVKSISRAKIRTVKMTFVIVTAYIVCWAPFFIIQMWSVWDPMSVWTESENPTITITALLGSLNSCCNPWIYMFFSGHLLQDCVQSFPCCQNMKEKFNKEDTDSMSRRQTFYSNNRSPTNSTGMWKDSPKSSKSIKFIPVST
TEST_NAME: Cellular in vitro assay for determining vasopressin receptor activity (V1a, aequorin luminescence)
Type: cell-based
TEST_SETTINGS: selectivity, IC50 hV2 divided by IC50 hV1a
Protocol: B-1. Cellular In Vitro Assay for Determining Vasopressin Receptor Activity The identification of agonists and antagonists of the V1a and V2 vasopressin receptors from humans, rats and dogs as well as the quantification of the activity of the compounds of the invention is carried out using recombinant cell lines. […] The bioluminescence of the cell lines is detected using a suitable luminometer [Milligan G, Marshall F, Rees S, Trends in Pharmacological Sciences 17, 235-237 (1996)]. […]
TEST_READOUT: ratio IC50 hV2/hV1a

Worked cases, answers included:
COMPOUND: O=C(NC(Cn1c(-c2ccc(Cl)cc2)nn(Cc2ncn(-c3ncccc3C(F)(F)F)n2)c1=O)C(F)(F)F)C1(C(F)(F)F)CC1 (racemic)
STUDY_SYSTEM: human V1a receptor (Homo sapiens (Human))
ratio IC50 hV2/hV1a: 40.2
//
COMPOUND: COCC(=O)NC(Cn1c(-c2ccc(Cl)cc2)nn(Cc2ncn(-c3ncccc3Cl)n2)c1=O)C(F)(F)F (racemic)
STUDY_SYSTEM: human V1a receptor (Homo sapiens (Human))
ratio IC50 hV2/hV1a: 111.5
//
COMPOUND: O=C1NCC(C(=O)NC(Cn2c(-c3ccc(Cl)cc3)nn(Cc3ncn(-c4ncccc4Cl)n3)c2=O)C(F)(F)F)N1 (stereo not shown)
STUDY_SYSTEM: human V1a receptor (Homo sapiens (Human))
ratio IC50 hV2/hV1a: 59.3
//
COMPOUND: O=C(NC(Cn1c(-c2ccc(Cl)cc2)nn(Cc2ncn(-c3ncccc3Cl)n2)c1=O)C(F)(F)F)C1COC1 (racemic)
STUDY_SYSTEM: human V1a receptor (Homo sapiens (Human))
ratio IC50 hV2/hV1a: 50.0

[I] O=C(NC(Cn1c(-c2ccc(Cl)cc2)nn(Cc2ncn(-c3ncccc3Cl)n2)c1=O)C(F)(F)F)[C@@H]1C[C@H](F)CN1 (stereo in doubt)
[II] O=C(NC(Cn1c(-c2ccc(Cl)cc2)nn(Cc2ncn(-c3ncccc3Cl)n2)c1=O)C(F)(F)F)C1CS(=O)(=O)C1 (racemic) [Example 39]
Task: Which record would sort first by descending ratio IC50 hV2/hV1a, I or II ? Mark your selection by writing its label.
Output: II

[1] N#CCC(=O)NC(Cn1c(-c2ccc(Cl)cc2)nn(Cc2ncn(-c3ncccc3Cl)n2)c1=O)C(F)(F)F (racemic)
[2] O=C(NC(Cn1c(-c2ccc(Cl)cc2)nn(Cc2ncn(-c3ncccc3C(F)(F)F)n2)c1=O)C(F)(F)F)C1CS(=O)(=O)C1 (racemic)
Task: Which record would sort first by descending ratio IC50 hV2/hV1a, 1 or 2 ? Mark your selection by writing its label.
Output: 2

[P] CC(=O)OC(C)(C)C(=O)NC(Cn1c(-c2ccc(Cl)cc2)nn(Cc2ncn(-c3ncccc3Cl)n2)c1=O)C(F)(F)F (racemic)
[Q] Cl.O=C(NC(Cn1c(-c2ccc(Cl)cc2)nn(Cc2ncn(-c3ncccc3C(F)(F)F)n2)c1=O)C(F)(F)F)[C@@H]1C[C@@H](F)CN1 (stereo partly shown)
Task: Which record would sort first by descending ratio IC50 hV2/hV1a, P or Q ? Mark your selection by writing its label.
Output: Q
(Q: 70.1, P: 27.7)

[1] O=C(N[C@@H](Cn1c(-c2ccc(Cl)cc2)nn(Cc2ncn(-c3ncccc3Cl)n2)c1=O)C(F)(F)F)C1(C(F)(F)F)CC1
[2] O=C(NC(Cn1c(-c2ccc(Cl)cc2)nn(Cc2ncn(-c3ncccc3Cl)n2)c1=O)C(F)(F)F)C1(C(F)(F)F)CC1 (stereo not shown) [Example 42]
[3] CC(F)C(=O)NC(Cn1c(-c2ccc(Cl)cc2)nn(Cc2ncn(-c3ncccc3Cl)n2)c1=O)C(F)(F)F (stereo not shown)
Task: Write the entries in order, lowest recorded ratio IC50 hV2/hV1a first. I'd appreciate it if you listed the labels in the requested order.
Output: 2, 1, 3
(2: 9.0, 1: 40.9, 3: 59.8)
